- protocol-text: Acute toxicity (LD50) in adult T. molitor Coleoptera (TMC) after injection in the hemocoel
- Assay type: in vivo, Tenebrio molitor
- condition-notes: Tenebrio molitor, in vivo, other: injection in the hemocoel; 1 µL in 100% DMSO injected in hemocoel; mortality recorded daily for 7 days; highest dose 2000 mg/kg
endpoint: log10 LD50 at 7 days (log10 of the value in mg/kg)

compound | log10 LD50 at 7 days
CC(=O)Nc1ccc(O)cc1 | 2.10
Nc1ccc(S(=O)(=O)Nc2ncccn2)cc1 | 2.48
CC1(C)S[C@@H]2[C@H](NC(=O)[C@H](N)c3ccc(O)cc3)C(=O)N2[C@H]1C(=O)O | 2.88
COc1cc(Cc2cnc(N)nc2N)cc(OC)c1OC | 2.48
O=C(N[C@H](CO)[C@H](O)c1ccc([N+](=O)[O-])cc1)C(Cl)Cl | 2.48
COCCc1ccc(OCC(O)CNC(C)C)cc1 (stereo not shown) | 2.70
Cc1onc(-c2ccccc2Cl)c1C(=O)N[C@@H]1C(=O)N2[C@@H]1SC(C)(C)[C@@H]2C(=O)O | 2.88
COc1ccc2c3c1O[C@H]1[C@@H](O)C=C[C@H]4[C@@H](C2)N(C)CC[C@@]341 | 1.70
NC(=O)N1c2ccccc2C=Cc2ccccc21 [Carbamazepine] | 2.10

* * *

- protocol-text: Acute toxicity (LD50) in adult T. molitor Coleoptera (TMC) after injection in the hemocoel
- Assay type: in vivo, Tenebrio molitor
- condition-notes: Tenebrio molitor, in vivo, other: injection in the hemocoel; 1 µL in 100% DMSO injected in hemocoel; mortality recorded daily for 7 days; highest dose 2000 mg/kg

compound | qualifier-operator | LD50 at 7 days [mg/kg]
Cc1cccc(C)c1NC(=O)C1CCCCN1C (stereo not shown) [Mepivacaine] | = | 125
CN/C(=N/CCSCc1nc[nH]c1C)NC#N | = | 750
CN(C)CCCN1c2ccccc2Sc2ccc(Cl)cc21 | = | 300
CC(C)C(=O)OC[C@H]1O[C@@H](n2ccc(NO)nc2=O)[C@H](O)[C@@H]1O | > | 2000

Hey, just so you know, these numbers are from paper PMC9917132.
